target: hFASN enzyme (full length) (Homo sapiens, UniProt P49327); construct: 10 μL hFASN enzyme (full length, 300 ng, purified in house); made in house; assay: Fatty Acid Synthase (FASN) inhibition scintillation proximity assay; assay type: biochemical; details: read-out: Human FASN pIC50 (converted)
Sequence (P49327 whole entry): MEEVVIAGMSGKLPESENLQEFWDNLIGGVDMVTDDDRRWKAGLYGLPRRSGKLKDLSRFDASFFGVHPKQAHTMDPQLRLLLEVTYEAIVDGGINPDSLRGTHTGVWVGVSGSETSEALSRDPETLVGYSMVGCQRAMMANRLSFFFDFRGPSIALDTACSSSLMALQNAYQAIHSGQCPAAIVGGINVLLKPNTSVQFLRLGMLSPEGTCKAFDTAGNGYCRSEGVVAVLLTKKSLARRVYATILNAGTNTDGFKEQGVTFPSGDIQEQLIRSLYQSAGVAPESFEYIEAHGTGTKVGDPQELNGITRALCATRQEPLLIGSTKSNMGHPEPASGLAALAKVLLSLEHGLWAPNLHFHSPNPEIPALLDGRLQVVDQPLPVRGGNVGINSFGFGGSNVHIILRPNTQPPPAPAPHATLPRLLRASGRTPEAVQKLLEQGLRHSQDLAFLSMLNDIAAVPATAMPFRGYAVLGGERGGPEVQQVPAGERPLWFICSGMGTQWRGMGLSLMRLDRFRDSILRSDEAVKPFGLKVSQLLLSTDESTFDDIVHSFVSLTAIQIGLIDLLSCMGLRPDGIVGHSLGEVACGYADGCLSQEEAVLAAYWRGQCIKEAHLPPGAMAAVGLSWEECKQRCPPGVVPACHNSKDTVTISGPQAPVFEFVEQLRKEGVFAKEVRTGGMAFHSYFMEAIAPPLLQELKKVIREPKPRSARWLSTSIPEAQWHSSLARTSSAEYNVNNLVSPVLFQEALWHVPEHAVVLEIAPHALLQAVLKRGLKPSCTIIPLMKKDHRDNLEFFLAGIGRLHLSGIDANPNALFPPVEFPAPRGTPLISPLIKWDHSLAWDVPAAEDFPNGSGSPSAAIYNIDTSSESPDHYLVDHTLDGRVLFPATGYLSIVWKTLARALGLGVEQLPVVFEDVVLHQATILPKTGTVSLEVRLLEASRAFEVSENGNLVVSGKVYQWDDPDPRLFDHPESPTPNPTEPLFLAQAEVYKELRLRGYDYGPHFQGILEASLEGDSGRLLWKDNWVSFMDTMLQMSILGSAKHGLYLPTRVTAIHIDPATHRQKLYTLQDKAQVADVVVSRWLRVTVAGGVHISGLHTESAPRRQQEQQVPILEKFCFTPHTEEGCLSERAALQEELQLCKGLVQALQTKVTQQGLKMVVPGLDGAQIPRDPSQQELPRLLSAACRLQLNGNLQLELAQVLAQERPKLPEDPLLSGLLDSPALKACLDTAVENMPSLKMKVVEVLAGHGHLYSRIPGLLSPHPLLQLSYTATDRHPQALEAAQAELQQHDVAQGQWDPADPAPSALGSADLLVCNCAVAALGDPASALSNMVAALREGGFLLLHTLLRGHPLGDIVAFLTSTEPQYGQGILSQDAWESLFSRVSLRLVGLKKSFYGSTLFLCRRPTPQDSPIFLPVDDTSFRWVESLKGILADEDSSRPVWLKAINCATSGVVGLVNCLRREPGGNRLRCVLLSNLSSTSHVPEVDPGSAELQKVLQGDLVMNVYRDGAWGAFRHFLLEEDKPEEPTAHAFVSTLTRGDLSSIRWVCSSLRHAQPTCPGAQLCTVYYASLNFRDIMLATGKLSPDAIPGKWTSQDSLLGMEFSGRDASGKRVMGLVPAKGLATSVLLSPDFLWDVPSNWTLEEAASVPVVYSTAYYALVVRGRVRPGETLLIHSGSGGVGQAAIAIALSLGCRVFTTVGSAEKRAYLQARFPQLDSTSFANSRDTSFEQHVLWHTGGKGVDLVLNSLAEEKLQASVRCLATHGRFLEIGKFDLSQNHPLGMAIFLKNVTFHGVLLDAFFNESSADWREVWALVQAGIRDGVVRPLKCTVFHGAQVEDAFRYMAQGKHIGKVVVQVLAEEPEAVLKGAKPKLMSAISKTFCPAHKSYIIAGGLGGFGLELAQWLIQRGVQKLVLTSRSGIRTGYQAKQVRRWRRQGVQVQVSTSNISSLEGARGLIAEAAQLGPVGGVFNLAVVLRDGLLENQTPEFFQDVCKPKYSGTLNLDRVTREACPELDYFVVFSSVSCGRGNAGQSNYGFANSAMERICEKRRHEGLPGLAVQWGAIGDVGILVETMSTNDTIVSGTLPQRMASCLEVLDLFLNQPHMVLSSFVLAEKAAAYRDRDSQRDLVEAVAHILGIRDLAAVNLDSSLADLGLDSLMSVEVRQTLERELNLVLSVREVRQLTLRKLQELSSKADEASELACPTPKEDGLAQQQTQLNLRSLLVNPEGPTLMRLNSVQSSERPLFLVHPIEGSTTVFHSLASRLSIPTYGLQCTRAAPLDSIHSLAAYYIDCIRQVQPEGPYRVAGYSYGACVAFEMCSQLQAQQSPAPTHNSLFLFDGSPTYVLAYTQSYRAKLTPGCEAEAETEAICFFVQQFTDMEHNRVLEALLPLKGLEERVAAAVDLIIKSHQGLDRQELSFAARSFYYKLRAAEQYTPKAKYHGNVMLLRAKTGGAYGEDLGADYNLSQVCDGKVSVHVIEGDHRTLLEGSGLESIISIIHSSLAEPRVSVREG

{"molecule": "CS(=O)(=O)N1CC(CN2C(=O)C3(CCOCC3)N=C2c2ccc(-c3ccc4cccnc4c3)cc2)C1 [compound 912]", "IC50": "> 10000 nM"}
{"molecule": "Cc1cc2cc(-c3ccc(C4=NC5(CCN(C(C)C)CC5)C(=O)N4C[C@@H]4CCN(C(=O)C5CC5)C4)cc3)ccc2o1 [compound 186]", "IC50": "1550 nM"}
{"molecule": "O=C(C1CC1)N1CC[C@@H](CN2C(=O)C3(CCCC3)N=C2c2ccc(-c3ccc4cnccc4c3)cc2)C1 [compound 12]", "IC50": "25.7 nM"}
{"molecule": "Cn1nc(C#N)c2ccc(-c3ccc(C4=NC5(CC5)C(=O)N4C[C@@H]4CCN(C(=O)C5CC5)C4)cc3)cc21 [compound 493]", "IC50": "166 nM"}
{"molecule": "O=C(C1CC1)N1CCC(CN2C(=O)C3(CC3)N=C2c2ccc(-c3ccc4[nH]ccc4c3)cc2)CC1 [compound 10]", "IC50": "204 nM"}
{"molecule": "Cc1cc2cc(-c3ccc(C4=NC5(CC5)C(=O)N4CC4CN(C(=O)C5CC5)C4)c(F)c3)ccc2n1C [compound 569]", "IC50": "209 nM"}
{"molecule": "Cc1sc2ccc(-c3ccc(C4=NC5(CC5)C(=O)N4CC4CN(C(=O)C5CC5)C4)cc3)cc2c1C [compound 418]", "IC50": "151 nM"}
{"molecule": "N#Cc1cccc(-c2ccc(C3=NC4(CCCC4)C(=O)N3C[C@@H]3CCN(C(=O)C4CC4)C3)cc2)c1 [compound 83]", "IC50": "4790 nM"}
{"molecule": "COC(=O)N1CC[C@@H](CN2C(=O)C3(CCOC3)N=C2c2ccc(-c3ccc(-c4cnn(C)c4)cc3)cc2)C1 (some centres unmarked) [compound 894]", "IC50": "> 10000 nM"}
{"molecule": "CC(C)n1cc(-c2ccc(-c3ccc(C4=NC5(CC5)C(=O)N4CC4CN(C(=O)C5CC5)C4)cc3)cc2)cn1 [compound 331]", "IC50": "66.1 nM"}
{"molecule": "O=C(C1CC1)N1CC(CN2C(=O)C3(CC3)N=C2c2ccc(-c3cccc(NS(=O)(=O)C4CC4)c3)cc2F)C1 [compound 619]", "IC50": "186 nM"}
{"molecule": "Cc1nnc2ccc(-c3ccc(C4=NC5(CC5)C(=O)N4CC4CN(C(=O)C5CC5)C4)cc3)cn12 [compound 793]", "IC50": "> 10000 nM"}
{"molecule": "Cc1cc(-c2cccc(NS(=O)(=O)C3CC3)c2)ccc1C1=NC2(CC2)C(=O)N1CC1CN(C(=O)C2CC2)C1 [compound 578]", "IC50": "646 nM"}
{"molecule": "Cc1cc2cc(-c3ccc(C4=NC5(CC5)C(=O)N4C[C@@H]4CCN(C(=O)C5CC5)C4)c(C)c3)ccc2o1 [compound 280]", "IC50": "30.2 nM"}
